Molecular target: T1, P12 WT (Enterobacteria phage PRD1, UniProt P17637 1-160)
T1 sequence: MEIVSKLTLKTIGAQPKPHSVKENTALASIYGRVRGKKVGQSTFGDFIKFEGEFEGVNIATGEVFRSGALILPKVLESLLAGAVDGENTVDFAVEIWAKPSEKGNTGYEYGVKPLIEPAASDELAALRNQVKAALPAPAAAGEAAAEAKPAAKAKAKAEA
Test: EMSA
Measured Property: pKd
Note on pKd: it is the negative log10 of concentration, concentration in mol/L.

Annotate the binder ssDNA (non-repetitive)80 (ssDNA) DNA: AGAGACAACTGGCCGTCGTTCTATTGTACTCACTGTGATCAGAGACAACTGGCCGTCGTTCTATTGTACTCACTGTGATC with its measured pKd.
6.46
